Target: rat intestinal sucrase (Rattus norvegicus)
Sequence (P23739 whole entry): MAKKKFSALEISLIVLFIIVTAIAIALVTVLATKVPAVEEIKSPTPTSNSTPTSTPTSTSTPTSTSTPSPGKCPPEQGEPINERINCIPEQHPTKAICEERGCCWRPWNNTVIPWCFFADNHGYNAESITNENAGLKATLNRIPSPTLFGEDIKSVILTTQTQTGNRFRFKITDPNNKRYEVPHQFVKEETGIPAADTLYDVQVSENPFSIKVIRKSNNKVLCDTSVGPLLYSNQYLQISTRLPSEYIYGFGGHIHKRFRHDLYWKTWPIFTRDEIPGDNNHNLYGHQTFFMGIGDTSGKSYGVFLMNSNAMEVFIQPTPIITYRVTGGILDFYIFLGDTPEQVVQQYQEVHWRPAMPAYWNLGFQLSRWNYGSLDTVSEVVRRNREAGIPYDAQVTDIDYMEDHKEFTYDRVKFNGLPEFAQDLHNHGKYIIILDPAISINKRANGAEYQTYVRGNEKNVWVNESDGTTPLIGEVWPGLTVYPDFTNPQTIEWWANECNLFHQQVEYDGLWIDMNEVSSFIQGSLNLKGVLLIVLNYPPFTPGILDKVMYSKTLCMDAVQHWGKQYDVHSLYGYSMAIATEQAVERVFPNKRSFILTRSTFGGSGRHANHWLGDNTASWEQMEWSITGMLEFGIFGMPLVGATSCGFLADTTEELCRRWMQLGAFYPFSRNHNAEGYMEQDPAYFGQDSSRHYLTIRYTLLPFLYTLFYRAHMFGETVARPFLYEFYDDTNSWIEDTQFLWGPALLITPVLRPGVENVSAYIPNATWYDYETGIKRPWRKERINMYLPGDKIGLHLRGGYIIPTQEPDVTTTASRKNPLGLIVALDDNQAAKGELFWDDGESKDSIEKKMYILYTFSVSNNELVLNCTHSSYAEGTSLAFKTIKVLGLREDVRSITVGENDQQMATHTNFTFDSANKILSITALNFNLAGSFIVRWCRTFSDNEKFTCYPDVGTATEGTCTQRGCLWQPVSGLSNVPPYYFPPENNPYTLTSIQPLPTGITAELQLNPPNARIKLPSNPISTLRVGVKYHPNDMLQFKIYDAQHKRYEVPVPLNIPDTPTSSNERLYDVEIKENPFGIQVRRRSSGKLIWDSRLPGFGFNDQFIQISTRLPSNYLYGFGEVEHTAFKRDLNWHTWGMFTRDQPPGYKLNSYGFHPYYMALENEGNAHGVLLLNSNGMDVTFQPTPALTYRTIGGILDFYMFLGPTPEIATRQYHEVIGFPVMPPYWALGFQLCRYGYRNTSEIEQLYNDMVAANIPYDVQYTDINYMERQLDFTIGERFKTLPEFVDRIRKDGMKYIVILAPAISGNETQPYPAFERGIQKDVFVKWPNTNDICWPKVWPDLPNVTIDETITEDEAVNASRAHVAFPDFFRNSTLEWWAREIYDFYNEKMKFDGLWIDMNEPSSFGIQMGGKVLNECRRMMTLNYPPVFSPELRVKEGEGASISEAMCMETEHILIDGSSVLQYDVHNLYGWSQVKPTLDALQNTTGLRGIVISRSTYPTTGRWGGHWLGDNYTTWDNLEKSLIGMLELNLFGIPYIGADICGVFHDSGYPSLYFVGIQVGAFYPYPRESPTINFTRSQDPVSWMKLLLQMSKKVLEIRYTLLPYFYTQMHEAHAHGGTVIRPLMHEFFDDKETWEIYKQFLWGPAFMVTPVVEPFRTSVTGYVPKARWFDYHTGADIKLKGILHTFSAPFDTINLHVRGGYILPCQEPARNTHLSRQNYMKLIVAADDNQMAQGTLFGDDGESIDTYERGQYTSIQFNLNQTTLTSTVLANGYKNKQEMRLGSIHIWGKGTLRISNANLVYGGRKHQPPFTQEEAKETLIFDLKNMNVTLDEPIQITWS
pIC50: −log10 of the molar value.
Overview of recorded pIC50 for various compounds

Solved cases (3 shown):
compound | pIC50
OCC[S+](CCO)C[C@@H](O)[C@@H](O)CO.[Cl-] [Compound 28c] | < 3.42
[O-][C@@H](CO)[C@H](O)C[S@+]1C[C@@H](O)[C@H](O)[C@H]1CO [Neosalacinol (4), neosalacinol, reference compound] | 5.85
OCC[S+](C[C@@H](O)CO)C[C@@H](O)[C@@H](O)CO.[Cl-] (stereo partly shown) [Compound 27c] | < 3.47

Looking up OCC[S+](C[C@@H](O)[C@@H](O)CO)C(CO)CO.[Cl-] (single isomer, unassigned) [Compound 26c] , I found its pIC50 recorded as < 3.47
